Assay: Est. pKa of Table 1 compounds (approximate measurements of pKa-values)
Assay type: physicochemical
Conditions: aqueous 80 mM KCl solution (pH titration with 100 mM KOH), single value; read-out: Est. pKa
readout-kind: pKa

Solved entries (count: 5):
Q. Report measured pKa; entry is CCN(CC)CCCCCC[N+](C)(CC)CC [Compound 34a]
A. ~10.1

Q. Report measured pKa; entry is CN(CCO)CC[N+](C)(C)CCO [Compound 20a]
A. ~5.2

Q. Report measured pKa; entry is CCN(CC)CCC[N+](C)(CC)CC [Compound 30a]
A. ~8.7

Q. Report measured pKa; entry is C[N+](C)(C)CC(O)CNC(CO)(CO)CO (stereo not drawn) [Compound 19a]
A. ~5.8

Q. Report measured pKa; entry is CCN(CC)CC[N+](C)(CC)CC [Compound 28a]
A. ~6.7

Proceeding to the next compound to report its pKa.
Q. Report measured pKa; entry is CCN(C(C)C)C1CC[N+](CC)(CC)CC1 [Compound 74a]
A. ~7.4

====

Assay: Change in pKa of amine caused by proximal quaternary ammonium group
Format: physicochemical
Details: relative to trimethylamine; water at 25° C., μ=0.1; approximate numbers
readout-kind: Change in pKa of Me2N—

Q. Report measured Change in pKa of Me2N—; entry is `CN1CC[N+](C)(C)CC1`
A. ~−5.5 log K units

Q. Report measured Change in pKa of Me2N—; entry is CN(C)CC(O)C[N+](C)(C)C (centres unmarked)
A. ~−1.9 log K units

Further cases:
Q. Report measured Change in pKa of Me2N—; entry is `CN1CCC[N+](C)(C)CC1`
A. ~−3.6 log K units

Q. Report measured Change in pKa of Me2N—; entry is `CN(C)CCCC[N+](C)(C)C`
A. ~−0.9 log K units

Q. Report measured Change in pKa of Me2N—; entry is `CN(C)CC[N+](C)(C)C`
A. ~−3.7 log K units

Q. Report measured Change in pKa of Me2N—; entry is CN(C)CC=CC[N+](C)(C)C [n = 4 (trans —CH2CH═CHCH2—)]
A. ~−1.3 log K units

Q. Report measured Change in pKa of Me2N—; entry is `CN(C)CCCCCC[N+](C)(C)C`
A. ~−0.3 log K units

Q. Report measured Change in pKa of Me2N—; entry is `CN(C)CCC[N+](C)(C)C`
A. ~−1.7 log K units

Q. Report measured Change in pKa of Me2N—; entry is CN(C)CC(O)C(O)C[N+](C)(C)C (centres unmarked)
A. ~−1.1 log K units

Q. Report measured Change in pKa of Me2N—; entry is `CN(C)CCCCC[N+](C)(C)C`
A. ~−0.5 log K units

Q. Report measured Change in pKa of Me2N—; entry is `CN(C)C[N+](C)(C)C`
A. ~−10.5 log K units

====

Assay: Est. pKa of Table 1 compounds (approximate measurements of pKa-values)
Format: physicochemical
Details: single value
Measured Est. pKa of individual entries

Solved entries (count: 3):
Q. Report measured Est. pKa; entry is C[N+](C)(C)CC(O)CN(CCO)CCCS(=O)(=O)[O-] (stereo not drawn)
A. ~6.4

Q. Report measured Est. pKa; entry is `CN1CCN(C)C1=NCC[N+](C)(C)C.Cl.[Cl-]`
A. ~11.1

Q. Report measured Est. pKa; entry is CN(C)CCC[N+](C)(C)C.Cl.[Cl-] [Compound 29a]
A. ~8.1

Further cases:
Q. Report measured Est. pKa; entry is `CN(C)CCC[N+](C)(C)CCCS(=O)(=O)[O-]`
A. ~8.1

Q. Report measured Est. pKa; entry is `Br.CN(C)C(=NCCC[N+](C)(C)C)N(C)C.[Br-]`
A. ~12.9

Q. Report measured Est. pKa; entry is `CN(CCCS(=O)(=O)O)CC[N+](C)(C)CCCS(=O)(=O)[O-]`
A. ~5.5

Q. Report measured Est. pKa; entry is CN(CCC[N+](C)(CCS(=O)(=O)[O-])CC(O)C[N+](C)(C)Cc1ccccc1)CCS(=O)(=O)[O-] (stereo not drawn)
A. ~6.1

Q. Report measured Est. pKa; entry is C[N+](C)(C)CC(O)CNCCO.Cl.[Cl-] (stereo not drawn) [Compound 78a]
A. ~7.8

Q. Report measured Est. pKa; entry is Br.CCOP(=O)(CCC[N+](C)(C)CCCN(C)C)OCC.[Br-] [Compound 79a]
A. ~8.1

====

Assay: pKa values quoted for buffers (buffer combinations table)
Assay type: physicochemical
Conditions: aqueous solution; 25° C., ionic-strength 0.10 unless otherwise specified (b6); read-out: pKa of buffer in cationic/anionic buffer combinations
readout-kind: pKa

Q. Report measured pKa; entry is `OB(O)O`
A. 9

Proceeding to the next compound to report its pKa.
Q. Report measured pKa; entry is `COCC(=O)O`
A. 3.3

====

Assay: Precision measurements of pKa-values by pH titration
Type: physicochemical
Details: aqueous solution of 10 mM buffer and 80 mM KCl, titrated with 100 mM KOH, six titrations, 25° C., ionic-strength 0.10 unless otherwise specified (b6), read-out: Meas. pKa
Structures can show the parent of a compound that is named as a salt.
readout-kind: pKa
Reply with just the number.

Q. Report measured pKa; entry is C[N+](C)(C)CC(O)CC(=O)[O-] (stereo not shown) [Carnitine HCl]
A. 3.83

# credit: patent US8361779B2
